Data provenance: ChEMBL document CHEMBL1132822

# assayText: Half life in Dog plasma at a dosage 5 mg/kg after intravenous administration
# Format: ADME, organism-based, Canis lupus familiaris
# Parameters: dose 5 mg/kg, route intravenous
A collection of compounds and their measured half-life
quantityMeasured: half-life (h)

CCOC/C=C/c1ccc(-c2nc(-c3ccc(NC(C)C)cc3)c(-c3ccc(NC)cc3)[nH]2)cc1 = 1.35
CCOC/C=C/c1ccc(-c2nc(-c3ccc(N(C)C)cc3)c(-c3ccc(N(C)C)cc3)[nH]2)cc1 = 0.5
CCOC/C=C/c1ccc(-c2nc(-c3ccc(NC(C)C)cc3)c(-c3ccc(NC(C)C)cc3)[nH]2)cc1 = 2.79
CCOC/C=C/c1ccc(-c2nc(-c3ccc(F)cc3)c(-c3ccc(NC(C)C)cc3)[nH]2)cc1 = 1.27

----------
# targetEntity: ATP-dependent translocase ABCB1 (Homo sapiens)
# Sequence (P08183 whole entry): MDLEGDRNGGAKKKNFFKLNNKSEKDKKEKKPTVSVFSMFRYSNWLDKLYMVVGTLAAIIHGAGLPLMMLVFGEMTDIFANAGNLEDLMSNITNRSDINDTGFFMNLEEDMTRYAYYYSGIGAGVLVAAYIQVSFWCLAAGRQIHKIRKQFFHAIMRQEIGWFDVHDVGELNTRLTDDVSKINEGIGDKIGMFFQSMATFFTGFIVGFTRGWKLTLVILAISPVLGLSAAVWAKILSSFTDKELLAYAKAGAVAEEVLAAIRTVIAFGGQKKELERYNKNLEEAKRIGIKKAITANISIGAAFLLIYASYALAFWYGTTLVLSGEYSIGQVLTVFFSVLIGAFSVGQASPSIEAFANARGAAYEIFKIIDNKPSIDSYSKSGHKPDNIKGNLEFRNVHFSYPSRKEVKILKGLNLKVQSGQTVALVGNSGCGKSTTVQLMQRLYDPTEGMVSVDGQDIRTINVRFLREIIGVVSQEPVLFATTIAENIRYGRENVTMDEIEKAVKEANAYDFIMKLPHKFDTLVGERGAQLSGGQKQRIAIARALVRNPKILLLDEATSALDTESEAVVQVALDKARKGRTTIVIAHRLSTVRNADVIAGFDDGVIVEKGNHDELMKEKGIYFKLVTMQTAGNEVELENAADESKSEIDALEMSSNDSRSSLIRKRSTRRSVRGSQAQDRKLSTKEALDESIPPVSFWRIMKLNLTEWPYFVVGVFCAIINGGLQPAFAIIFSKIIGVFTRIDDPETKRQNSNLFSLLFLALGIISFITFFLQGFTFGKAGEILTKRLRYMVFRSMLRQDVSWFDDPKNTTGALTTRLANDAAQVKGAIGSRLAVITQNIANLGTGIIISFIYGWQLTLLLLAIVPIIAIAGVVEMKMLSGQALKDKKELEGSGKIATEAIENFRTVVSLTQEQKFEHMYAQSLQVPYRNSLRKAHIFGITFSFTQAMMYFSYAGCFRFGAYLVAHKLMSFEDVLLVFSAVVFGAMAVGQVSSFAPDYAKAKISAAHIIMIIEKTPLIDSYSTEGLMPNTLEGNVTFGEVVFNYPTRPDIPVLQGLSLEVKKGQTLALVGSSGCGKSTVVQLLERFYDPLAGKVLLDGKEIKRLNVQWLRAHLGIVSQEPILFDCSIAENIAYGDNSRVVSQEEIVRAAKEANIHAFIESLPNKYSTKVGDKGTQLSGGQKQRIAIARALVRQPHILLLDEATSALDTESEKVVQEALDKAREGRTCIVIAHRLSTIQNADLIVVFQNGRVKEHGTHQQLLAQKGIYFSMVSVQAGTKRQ
# assayText: Modulation of Pgp (P-glycoprotein) mediated multidrug resistance in CEM / VLB 1000 cell line
# conditionLabel: read-out: ED50 (the source's name)
pEC50: −log10 of the molar value.
Please use 1.0 whenever pEC50 is not below 7, and 0.0 whenever it is.

COC(=O)/C=C/c1ccc(-c2nc(-c3ccc(N(C)C)cc3)c(-c3ccc(N(C)C)cc3)[nH]2)cc1 = 0.0
CCOCC/C=C/c1ccc(-c2nc(-c3ccc(NC)cc3)c(-c3ccc(N(CC)CC)cc3)[nH]2)cc1 = 1.0
CCCN(CCC)c1ccc(-c2c[nH]c(-c3ccc(/C=C/COCC)cc3)n2)cc1 = 0.0
CCOC/C=C/c1ccc(-c2nc(-c3ccc(N4CCOCC4)cc3)c(-c3ccc(N4CCOCC4)cc3)[nH]2)cc1 = 0.0
CCN(CC)c1ccc(-c2nc(-c3ccc(/C=C/C(=O)OC)cc3)[nH]c2-c2ccc(N(CC)CC)cc2)cc1 = 0.0
CCCCN(CCCC)c1ccc(-c2[nH]c(-c3ccc(/C=C/C(=O)OC)cc3)nc2-c2ccc(NC)cc2)cc1 = 0.0
CCOC/C=C/c1ccc(-c2nc(-c3ccc(N(CC)CC)cc3)c[nH]2)cc1 = 0.0
CCOC/C=C/c1ccc(-c2nc(-c3ccc(NCC(C)C)cc3)c[nH]2)cc1 = 0.0
CCOC/C=C/c1ccc(-c2nc(-c3ccc(NC(C)C)cc3)c(-c3ccc(NC)cc3)[nH]2)cc1 = 1.0
COC(=O)/C=C/c1ccc(-c2nc(-c3ccc(N4CCCC4)cc3)c(-c3ccc(N4CCCC4)cc3)[nH]2)cc1 = 0.0
CCOC/C=C/c1ccc(-c2nc(-c3ccc(NC(C)C)cc3)c(-c3ccc(NC(C)C)cc3)[nH]2)cc1 = 1.0
CCNc1ccc(-c2[nH]c(-c3ccc(/C=C/COCC)cc3)nc2-c2ccc(NC(C)C)cc2)cc1 = 1.0
CCOC/C=C/c1ccc(-c2nc(-c3ccc(N4CCOCC4)cc3)c[nH]2)cc1 = 0.0

----------
# targetEntity: ATP-dependent translocase ABCB1 (Homo sapiens)
# assayText: Modulation of Pgp (P-glycoprotein) mediated multidrug resistance in CEM / VLB 1000 cell line
# Type: functional, cell-based, CCRF-CEM
# conditionLabel: read-out: ED50 (the source's name)
quantityMeasured: log10 EC50 (log10 of the value in nM)

CNc1ccc(-c2nc(-c3ccc(/C=C/C(=O)OC)cc3)[nH]c2-c2ccc(NC)cc2)cc1 = 2.30
CCOC/C=C/c1ccc(-c2nc(-c3ccc(NC)cc3)c(-c3ccc(N4CCCC4)cc3)[nH]2)cc1 = 2.18
CCOC/C=C/c1ccc(-c2nc(-c3ccc(N(CC)CC)cc3)c(-c3ccc(N(CC)CC)cc3)[nH]2)cc1 = 2.41
CNc1ccc(-c2[nH]c(-c3ccc(/C=C/C(=O)OC)cc3)nc2-c2ccc(N(C)C)cc2)cc1 = 2.11
C=CCN(CC=C)c1ccc(-c2nc(-c3ccc(/C=C/C(=O)OC)cc3)[nH]c2-c2ccc(N(CC=C)CC=C)cc2)cc1 = 3.74
CCN(CC)c1ccc(-c2[nH]c(-c3ccc(/C=C/C(=O)OC)cc3)nc2-c2ccc(N)cc2)cc1 = 2.49
CCCN(CCC)c1ccc(-c2[nH]c(-c3ccc(/C=C/C(=O)OC)cc3)nc2-c2ccc(NC)cc2)cc1 = 2.26
CCOC/C=C/c1ccc(-c2nc(-c3ccc(NC(C)C)cc3)c[nH]2)cc1 = 2.53
COC(=O)/C=C/c1ccc(-c2nc(-c3ccc(N)cc3)c(-c3ccc(N(C)C)cc3)[nH]2)cc1 = 2.77
